Experiment: binders from COS7 lysate, DM2A8 probe, primary screen, torsin A project, cell lysate, small-molecule microarray, fluorescence 635/667 (AID 1065)
Conditions: higher = more signal, COS7 lysate expressing mutant human TOR1A
Bucketed by reported composite z-score, buckets being range A = under 0.1, range B = from 0.1 up to 0.5, range C = 0.5 and over

| Compound | Class label |
| --- | --- |
| CN(C)C(=O)[C@]1(CCC(=O)OC(C)(C)C)N=C(c2ccc(OCCCO)cc2)O[C@@H]1c1ccccc1 | range C |
| Cc1ccc(S[C@]2(C(=O)O)CC(=O)N(Cc3ccccc3Cl)[C@@H]2c2ccc(CO)cc2)cc1 | range A |
| CC(C)C(=C=CC[C@@H](O)c1ccccc1OCCO)C[C@@H](O)COCc1ccccc1 | range B |
| Cc1ccc(C(C)CC(O)C2C=CC3C(=O)N(c4ccccc4)C(=O)C3N2Nc2ccc(C(C)C)cc2)o1 (stereo not given) | range C |
| COC(=O)C(CC#Cc1ccc2c(c1)[C@]1(C(=O)N2)[C@H](C(=O)O)[C@H]2C(=O)O[C@H](c3ccccc3)[C@H](c3ccccc3)N2[C@@H]1c1ccccc1OCCO)C(=O)OC | range C |
| CC(C)(C)OC(=O)CC[C@]1(C(=O)NCCN2CCOCC2)N=C(c2ccc(OCCCO)cc2)O[C@H]1c1ccccc1 | range A |
| COc1ccc([Si](C)(C)[C@H]2[C@H](CCO)O[C@@]3(C(=O)N(Cc4cccc(N5CCCCC5=O)c4)c4ccccc43)[C@@H]2C)cc1 | range B |
| CC(C)CCC[C@@H](C)[C@H]1CC[C@@]2(C)C3=C(CC[C@]12C)[C@@]1(C)CC[C@H](OC(=O)c2ccc(Br)cc2)C(C)(C)C1CC3 (stereo not given in full) | range B |
| COCCOC(=O)N1C(=O)[C@@]2(c3cc(C#Cc4ccc(OC)cc4)ccc31)[C@H](C(=O)N1CCN(c3ncccn3)CC1)[C@H]1C(=O)O[C@H](c3ccccc3)[C@H](c3ccccc3)N1[C@@H]2c1ccccc1OCCO | range A |
| CC(C)CNC(=O)[C@@]1(c2ccc([N+](=O)[O-])cc2)CC(=O)N(C2CCCCC2)[C@@H]1c1ccc(CO)cc1I | range B |
| COc1c(C)cc(-c2cc3c(c(Cc4ccccc4)n2)[Si](C(C)C)(C(C)C)OC3)cc1C | range A |
| COc1cc(CO)cc(I)c1O[C@H]1C=C(C(=O)NCCO)C[C@@H](N(Cc2ccc(F)cc2)C(=O)C2CCCO2)[C@@H]1O (stereo not given in full) | range B |
| O=C1NC(=O)C2C1C=CC(C(O)c1cc(C(F)(F)F)cc(C(F)(F)F)c1)N2Nc1ccc(Cl)cc1Cl (stereo not given) | range C |
| COc1ccc(C(O)C2C=CC3C(=O)N(c4ccccc4)C(=O)C3N2Nc2ccccc2)cc1OCc1ccccc1 (stereo not given) | range C |
| CCOC(=O)C1=CC[C@@H](c2ccccc2)N(S(=O)(=O)c2ccc(C)cc2)C1 | range B |

====

Test: cell viability in Huh7 cells, primary screen, cytotoxicity control for HCV replication inhibitor project, CellTiter-Glo luminescence, basal, 48 h (AID 1143);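 note: Huh7 hepatoma cells carrying a hepatitis C replication reporter with no stimulus; test concentration not given here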
Conditions: Huh7 HCV replicon, higher = more signal, called active from +8 up or from −8 down
just bin them by z-score: group A (below -3), group B (-3 to below -0.6), group C (-0.6 or more)

| Molecule | Class label |
| --- | --- |
| C=CCC(OC(C)=O)[C@@H]1[C@@H](N(Cc2cc3ccccc3o2)C(=O)Cc2ccc(F)cc2)c2cc(OCCCO)ccc2N1C(=O)c1ccc2ccccc2n1 (stereo not given in full) | group C |
| Cc1ccc(S[C@]2(C(=O)NC(C)C)CC(=O)N(Cc3ccccc3C(F)(F)F)[C@@H]2c2ccc(CO)cc2I)cc1 | group A |
| C=C[C@@H](COC(C)=O)NS(=O)(=O)c1ccc(Br)cc1 | group B |
| C=CC[C@@]1(C(=O)N2CCCCC2)N=C(c2ccc(OCCCO)cc2)O[C@@H]1c1ccccc1 | group A |
| [N-]=[N+]=NCc1ccccc1C[C@@]1(C(N)=O)N=C(c2ccc(OCCCO)cc2)O[C@@H]1c1ccccc1CN=[N+]=[N-] | group B |
| CCOc1cc(C(O)C2C=CC3C(=O)N(C4CCCCC4)C(=O)C3N2Nc2ccc(OC)cc2)ccc1O (stereo not given) | group B |
| COc1ccc([Si](C)(C)[C@@H]2[C@@H](CC(=O)N3CCC[C@H]3CO)O[C@]3(C(=O)N(Cc4ccc(N5C(=O)c6cccc7cccc5c67)cc4)c4ccccc43)[C@H]2C)cc1 | group A |
| O=C1NC(=O)C2C1C=CC(C(O)c1ccc3c(c1)OCO3)N2Nc1ccccn1 (stereo not given) | group C |
| CC(C)(C)OC(=O)CC[C@@]1(C(=O)O)N=C(c2ccc(OCCCO)cc2)O[C@@H]1c1ccccc1 | group B |
| C=CCOC(=O)[C@@H]1[C@H]2C(=O)O[C@H](c3ccccc3)[C@H](c3ccccc3)N2[C@H](c2ccc(OCCOC(=O)[C@H]3C[C@H]4C(=O)N[C@@H](CCCC[N+](C)(C)C)C(=O)N4[C@H]3c3ccc(O)cc3)cc2)[C@@]12C(=O)Nc1ccc(I)cc12 | group C |
| COCCOC(=O)N1C(=O)[C@@]2(c3cc(C#CC4(O)CCCCCC4)ccc31)[C@H](C(N)=O)[C@H]1C(=O)O[C@H](c3ccccc3)[C@H](c3ccccc3)N1[C@@H]2c1ccc(O)cc1 | group B |
| CC(C)(C)OC(=O)CC[C@]1(C(=O)O)N=C(c2ccc(OCCCO)cc2)O[C@H]1c1ccccc1CN=[N+]=[N-] | group C |
| Cc1ccc(S[C@]2(C(=O)NC(C)C)CC(=O)N(C3Cc4ccccc4C3)[C@@H]2c2ccc(CO)cc2I)cc1 | group B |
| CC[C@@H]1[C@H]2C3C(=O)N(CC)C(=O)C3CC(=O)[C@H]2[C@H](c2ccc(C)cc2)N1S(=O)(=O)c1ccc(C)cc1 (stereo not given in full) | group B |
| CC(CO)N1C(=O)[C@@H]2C3C(=O)OCCC/C=C\[C@H]3OC23C=CCN(Cn2nnc4ccccc42)C(=O)[C@@H]13 (stereo not given in full) | group C |
| Cc1ccc(S[C@]2(C(=O)NCCN3CCOCC3)CC(=O)N(Cc3ccccc3C(F)(F)F)[C@@H]2c2ccc(CO)cc2I)cc1 | group B |
| C[n+]1ccc(CCCO)cc1 | group C |
| COC(=O)C[C@H]1O[C@]2(C(=O)N(C)c3ccccc32)[C@@H](C)[C@@H]1[Si](C)(C)c1ccc(C)cc1 | group A |
| CCOC(=O)C[C@H]1[C@H](OC(=O)Cc2ccc3c(c2)OCO3)[C@@H](NC(=O)C2CCCCC2)c2cc(OCCCO)ccc2N1C(=O)c1ccc2ccccc2n1 | group A |
| COc1cc(OC)c(C(O)C2C=CC3C(=O)N(c4ccccc4)C(=O)C3N2Nc2ccc(C#N)cc2)cc1Br (stereo not given) | group C |
| CCOC(=O)C1=C[C@@H](c2ccccc2)N(S(=O)(=O)c2ccc(C)cc2)[C@H]1c1cccc(Cl)c1 | group A |
| COC(=O)[C@@]1(Cc2ccc(OC)cc2)[C@H]2c3cc(C(=O)N(C)C)n(CCc4c[nH]c5ccc(O)cc45)c3C[C@H]2CN1C(=O)c1ccccc1 | group B |
| COCCOC(=O)N1C(=O)[C@@]2(c3cc(C#Cc4ccc(OC)cc4)ccc31)[C@H](C(=O)N1CCCCCCC1)[C@H]1C(=O)O[C@H](c3ccccc3)[C@H](c3ccccc3)N1[C@@H]2c1ccc(O)cc1 | group A |
| O=C1c2ccccc2[C@](Cc2ccccc2I)(C(=O)NCc2ccccc2)[C@H](c2ccc(CO)cc2)N1C1CCCCC1 | group A |
| CC1CC/C=C\[C@H]2OC34C=CCN(C(C)C)C(=O)[C@H]3N(CCCCCO)C(=O)[C@@H]4C2C(=O)O1 (stereo not given in full) | group C |
| CC(C)CNC(=O)[C@@H]1c2ccccc2C(=O)N(Cc2cc(F)cc(C(F)(F)F)c2)[C@H]1c1ccc(CO)cc1 | group B |
